# assay.comment: log P by HPLC on reversed-phase column (C18), EEC Directive 79/831 Annex V.A8
# Format: physicochemical
# setup.conditions: 40° C., 0.1% aqueous formic acid and acetonitrile, linear gradient 10% to 90% acetonitrile
Kindly apply the following: 1 if logP is less than 4, 0 in every other case.

Some solved entries appear below for comparison.
>>> category_label("Cc1cc(C(=O)NC[Si](C)(C)c2ccc(Cl)cc2Cl)c(C)o1")
0
>>> category_label("Cn1nc(C(F)F)c(C(=O)NC[Si](C)(C)c2ccccc2Cl)c1F")
1
>>> category_label("Cc1cc(C(=O)N(C[Si](C)(C)c2cccc(Cl)c2)C2CC2)c(C)o1")
0
>>> category_label("Cn1nc(C(F)F)c(C(=O)N(C[Si](C)(C)Cc2ccccc2)C2CC2)c1Cl")
0

Determine whether this compound shows logP lower than 4 (ties excluded): Cc1cc(C(=O)N(C[Si](C)(C)c2ccc(Cl)cc2Cl)C2CC2)c(C)o1
0

Determine whether this compound shows logP lower than 4 (ties excluded): Cn1nc(C(F)F)c(C(=S)N(C[Si](C)(C)Cc2ccc(Cl)cc2Cl)C2CC2)c1F
0

Determine whether this compound shows logP lower than 4 (ties excluded): Cc1nn(C)c(F)c1C(=O)N(C[Si](C)(C)c1ccc(Cl)cc1Cl)C1CC1
0

Determine whether this compound shows logP lower than 4 (ties excluded): CN(C[Si](C)(C)c1ccccc1)C(=O)c1c(C(F)F)nn(C)c1F
1

Determine whether this compound shows logP lower than 4 (ties excluded): Cn1nc(C(F)F)c(C(=O)N(C[Si](C)(C)Cc2cc(Cl)cc(Cl)c2)C2CC2)c1Cl
0

Determine whether this compound shows logP lower than 4 (ties excluded): Cn1cc(C(=O)NC[Si](C)(C)c2cccc(Cl)c2)c(C(F)F)c1
1

Determine whether this compound shows logP lower than 4 (ties excluded): Cn1nc(C(F)F)c(C(=O)N(C[Si](C)(C)Cc2ccccc2Cl)C2CC2)c1F
0

Determine whether this compound shows logP lower than 4 (ties excluded): Cn1nc(C(F)F)c(C(=O)N(C[Si](C)(C)Cc2ccc(Cl)cc2Cl)C2CC2)c1Cl
0

Determine whether this compound shows logP lower than 4 (ties excluded): CCc1nn(C)c(F)c1C(=O)N(C[Si](C)(C)c1ccccc1)C1CC1
1

Determine whether this compound shows logP lower than 4 (ties excluded): Cn1nc(C(F)F)c(C(=O)N(C[Si](C)(C)c2cc(Cl)cc(Cl)c2)C2CC2)c1F
0

Determine whether this compound shows logP lower than 4 (ties excluded): Cn1cc(C(=O)N(C[Si](C)(C)Cc2cccc(Cl)c2)C2CC2)c(C(F)F)c1
0

Determine whether this compound shows logP lower than 4 (ties excluded): Cc1cc(C(=O)NC[Si](C)(C)c2ccccc2)c(C)o1
1

Determine whether this compound shows logP lower than 4 (ties excluded): Cn1nc(C(F)F)c(C(=S)NC[Si](C)(C)c2ccc(Cl)cc2Cl)c1F
0

Determine whether this compound shows logP lower than 4 (ties excluded): Cn1nc(C(F)F)c(C(=O)NC[Si](C)(C)c2cccc(Cl)c2)c1F
1

Determine whether this compound shows logP lower than 4 (ties excluded): Cn1nc(C(F)F)c(C(=O)N(C[Si](C)(C)c2ccc(Cl)cc2Cl)C2CC2)c1F
0

Determine whether this compound shows logP lower than 4 (ties excluded): Cn1nc(C(F)F)c(C(=O)NC[Si](C)(C)c2ccc(Cl)cc2Cl)c1Cl
0
